# studySystem: HDAC6 enzyme (Homo sapiens)
# Construct: HDAC6 enzyme prepared by transducing full length HDAC6 gene into Sf-9 insect cells; GST; purchased SignalChem; host or cells: Sf-9 insect cells
# Sequence (Q9UBN7 whole entry): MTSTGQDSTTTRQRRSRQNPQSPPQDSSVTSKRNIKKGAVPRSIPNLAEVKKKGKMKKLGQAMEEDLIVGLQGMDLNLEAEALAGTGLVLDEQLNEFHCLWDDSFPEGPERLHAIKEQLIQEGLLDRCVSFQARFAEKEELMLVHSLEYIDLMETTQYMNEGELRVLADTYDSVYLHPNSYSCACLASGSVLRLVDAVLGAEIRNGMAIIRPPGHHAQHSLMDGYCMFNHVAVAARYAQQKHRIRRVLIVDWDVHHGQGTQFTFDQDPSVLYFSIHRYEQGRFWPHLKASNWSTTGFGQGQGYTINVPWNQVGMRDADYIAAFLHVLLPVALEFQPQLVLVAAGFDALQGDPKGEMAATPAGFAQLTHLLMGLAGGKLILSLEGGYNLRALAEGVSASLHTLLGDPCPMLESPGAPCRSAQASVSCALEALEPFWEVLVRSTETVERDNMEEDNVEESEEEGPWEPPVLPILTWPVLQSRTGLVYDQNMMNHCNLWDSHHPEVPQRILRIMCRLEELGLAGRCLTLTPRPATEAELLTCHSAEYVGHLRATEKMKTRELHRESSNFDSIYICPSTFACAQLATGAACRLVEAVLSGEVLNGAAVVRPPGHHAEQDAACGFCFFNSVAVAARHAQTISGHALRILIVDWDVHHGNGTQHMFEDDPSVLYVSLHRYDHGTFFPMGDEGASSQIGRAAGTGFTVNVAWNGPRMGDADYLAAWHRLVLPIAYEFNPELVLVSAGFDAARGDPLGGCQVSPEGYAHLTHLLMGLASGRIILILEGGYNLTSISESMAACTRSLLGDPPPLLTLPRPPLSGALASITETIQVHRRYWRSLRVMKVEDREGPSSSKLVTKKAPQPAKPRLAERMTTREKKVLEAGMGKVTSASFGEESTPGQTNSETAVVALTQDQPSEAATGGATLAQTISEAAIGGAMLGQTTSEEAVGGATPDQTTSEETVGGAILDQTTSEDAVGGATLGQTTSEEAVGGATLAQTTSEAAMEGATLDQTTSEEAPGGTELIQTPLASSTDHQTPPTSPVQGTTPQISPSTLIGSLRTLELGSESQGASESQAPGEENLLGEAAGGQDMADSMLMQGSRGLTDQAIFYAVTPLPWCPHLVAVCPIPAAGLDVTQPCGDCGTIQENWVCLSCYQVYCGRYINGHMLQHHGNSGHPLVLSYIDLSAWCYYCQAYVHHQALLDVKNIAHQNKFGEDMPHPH
# experimentSummary: HDAC6 enzyme inhibitory assay (HDAC-Glo I/II Assay kit)
# Format: biochemical
# conditionLabel: wells without enzyme = 100% inhibition, read-out: HDAC6 inhibitory rate (%) (10 μM)
Quick list: inhibition at 10 µM per entry.
A number alone suffices; assume %.

Some entries whose results are on file:
O=C1c2cc(-c3nnc(C(F)F)o3)ccc2CN1[C@H](c1ccccn1)[C@@H](O)c1ccc(C(F)(F)F)cn1 (single isomer, unassigned): 100
O=C1c2cc(-c3nnc(C(F)F)o3)ccc2CN1[C@H](c1ccccn1)[C@@H](O)c1ccccc1 (single isomer, unassigned): 100
O=C1c2cc(-c3nnc(C(F)F)o3)ccc2CN1[C@H](c1ncccn1)[C@@H](O)c1cccc(Cl)c1 (racemic): 100
O=C1c2cc(-c3nnc(C(F)F)o3)ccc2CN1[C@H](c1ccccn1)[C@@H](O)c1ccc(Cl)cn1 (single isomer, unassigned): 99
O=C1c2cc(-c3nnc(C(F)F)o3)ccc2CN1[C@H](C1CCOCC1)[C@@H](O)c1ccc(F)c(F)c1 (single isomer, unassigned): 100
O=C1c2cc(-c3nnc(C(F)F)o3)ccc2CN1[C@H](C1CC1)[C@@H](O)c1cccc(F)n1 (single isomer, unassigned): 99

Now for another entry.
inhibition at 10 µM for O=C1c2cc(-c3nnc(C(F)F)o3)ccc2CN1[C@H](c1ccc(F)cc1F)[C@@H](O)c1ccc(F)cc1 (single isomer, unassigned) ?
99
